Provenance of the data: ChEMBL document CHEMBL3879902

# assayMethodText: Aqueous solubility of the compound in simulated gastric fluid at pH 1.5
# Type: ADME
# conditions: simulated gi fluid
assayEndpoint: solubility

Guide cases for solubility, answers given:
# smi, solubility
records = [
    ("CCCS(=O)(=O)Nc1cccc(C(=O)c2c[nH]c3ncc(-c4cnc(N(C)C)nc4)cc23)c1F", "Insoluble"),
    ("Cc1cnc2[nH]cc(C(=O)c3c(F)ccc(NS(=O)(=O)c4cccnc4)c3F)c2c1", "Soluble"),
    ("COc1ccnc2[nH]cc(C(=O)c3c(F)ccc(NS(=O)(=O)c4ccccc4F)c3F)c12", "Soluble"),
    ("COc1ncc(-c2cnc3[nH]cc(C(=O)c4c(F)ccc(NS(=O)(=O)c5ccccc5F)c4F)c3c2)cn1", "Insoluble"),
]

`N#Cc1cnc2[nH]cc(C(=O)c3c(F)ccc(NS(=O)(=O)c4ccccc4)c3F)c2c1` yielded solubility of Insoluble

----------
# assayMethodText: Aqueous solubility of the compound in simulated intestinal fluid at pH 4.5
# Type: ADME
# conditions: simulated gi fluid
assayEndpoint: solubility

Recorded solubility, per entry:
# smi, solubility
measured = [
    ("N#Cc1ccnc2[nH]cc(C(=O)c3c(F)ccc(NS(=O)(=O)c4ccccc4F)c3F)c12", "Soluble"),
    ("N#Cc1cnc2[nH]cc(C(=O)c3cccc(NS(=O)(=O)c4ccccc4)c3F)c2c1", "Insoluble"),
    ("CCCS(=O)(=O)Nc1ccc(F)c(C(=O)c2c[nH]c3ncc(-c4ccc(N(C)C)nc4)cc23)c1F", "Insoluble"),
    ("COc1ncc(-c2cnc3[nH]cc(C(=O)c4c(F)ccc(NS(=O)(=O)c5cccc(F)c5)c4F)c3c2)cn1", "Insoluble"),
    ("CCCS(=O)(=O)Nc1ccc(F)c(C(=O)c2c[nH]c3ncc(-c4ccc(S(=O)(=O)N5CCOCC5)cc4)cc23)c1F", "Insoluble"),
]

What the record says about `CCCS(=O)(=O)Nc1ccc(F)c(C(=O)c2c[nH]c3ncc(-c4ccc(S(=O)(=O)NC5CC5)cc4)cc23)c1F` : solubility is Insoluble

Quick note, solubility for `CCCS(=O)(=O)Nc1ccc(F)c(C(=O)c2c[nH]c3ncc(-c4cnc(N5CCCC5)nc4)cc23)c1F` landed at Insoluble

The compound listed as `CCCS(=O)(=O)Nc1ccc(F)c(C(=O)c2c[nH]c3ncc(-c4ccc(S(C)(=O)=O)cc4)cc23)c1F` has a reported solubility of Insoluble

Looking up `CCCS(=O)(=O)Nc1ccc(F)c(C(=O)c2c[nH]c3ncc(-c4ccc(F)nc4)cc23)c1F` , I see its solubility listed as Insoluble

solubility recorded for this compound, `O=C(c1c(F)ccc(NS(=O)(=O)c2cc(F)ccc2F)c1F)c1c[nH]c2ncc(Cl)cc12` , is Insoluble

Entry `N#Cc1cnc2[nH]cc(C(=O)c3cccc(NS(=O)(=O)c4cc(F)ccc4F)c3F)c2c1` — recorded solubility = Insoluble

solubility reported for this compound `CCCS(=O)(=O)Nc1ccc(F)c(C(=O)c2c[nH]c3ncc(-c4cnc(N(C)C)nc4)cc23)c1F` : Insoluble

solubility for `O=C(c1c(F)ccc(NS(=O)(=O)c2c(F)cccc2F)c1F)c1c[nH]c2ncc(Cl)cc12` is Soluble

Looking up `CCCS(=O)(=O)Nc1ccc(F)c(C(=O)c2c[nH]c3ncc(-c4cnc(C)nc4)cc23)c1F` , I see its solubility listed as Soluble

The reported solubility of the compound `CCCS(=O)(=O)Nc1ccc(F)c(C(=O)c2c[nH]c3ncc(-c4cn[nH]c4)cc23)c1F` was Insoluble

solubility reported for this compound `Cc1cnc2[nH]cc(C(=O)c3c(F)ccc(NS(=O)(=O)c4ccccc4F)c3F)c2c1` : Soluble

The measured solubility associated with `CCCS(=O)(=O)Nc1ccc(F)c(C(=O)c2c[nH]c3ncc(-c4ccnc(F)c4)cc23)c1F` reads Insoluble

solubility reported for this compound `CCCS(=O)(=O)Nc1ccc(F)c(C(=O)c2c[nH]c3ncc(-c4cnc(N5CCOCC5)nc4)cc23)c1F` : Insoluble

// sample `COc1cnc2[nH]cc(C(=O)c3c(F)ccc(NS(=O)(=O)c4ccccc4F)c3F)c2c1` , its solubility was Insoluble

Lab note: measured solubility of `CCCS(=O)(=O)Nc1ccc(F)c(C(=O)c2c[nH]c3ncc(-c4cnc(SC)nc4)cc23)c1F` was Insoluble

Field solubility (entry `CCCS(=O)(=O)Nc1ccc(F)c(C(=O)c2c[nH]c3ncc(-c4ccc(OCCCN5CCCC5)nc4)cc23)c1F` ) reads Soluble

Recorded result, `CCCS(=O)(=O)Nc1ccc(F)c(C(=O)c2c[nH]c3ncc(-c4ccc(OCCCN5CCOCC5)nc4)cc23)c1F` , solubility: Soluble

The compound listed as `CCCS(=O)(=O)Nc1ccc(F)c(C(=O)c2c[nH]c3ncc(-c4ccc(C(=O)NC5CC5)nc4)cc23)c1F` shows solubility equal to Insoluble

For record `CCCS(=O)(=O)Nc1ccc(F)c(C(=O)c2c[nH]c3ncc(-c4ccc(C)nc4)cc23)c1F` the listed solubility is Soluble

----------
# assayMethodText: Aqueous solubility of the compound in simulated gastric fluid at pH 1.5
# Format: ADME
# conditions: simulated gi fluid
assayEndpoint: solubility

# count of solved cases: 6
# smi, solubility
data = [
    ("N#Cc1cnc2[nH]cc(C(=O)c3cccc(NS(=O)(=O)c4ccccc4)c3F)c2c1", "Insoluble"),
    ("CCCS(=O)(=O)Nc1ccc(F)c(C(=O)c2c[nH]c3ncc(-c4cncc(S(C)(=O)=O)c4)cc23)c1F", "Soluble"),
    ("COc1ccnc2[nH]cc(C(=O)c3c(F)ccc(NS(=O)(=O)c4cc(F)ccc4F)c3F)c12", "Soluble"),
    ("Cc1cnc2[nH]cc(C(=O)c3c(F)ccc(NS(=O)(=O)c4cc(F)ccc4F)c3F)c2c1", "Soluble"),
    ("CCCS(=O)(=O)Nc1ccc(F)c(C(=O)c2c[nH]c3ncc(-c4ccc(OC)nc4OC)cc23)c1F", "Insoluble"),
    ("COc1ncc(-c2cnc3[nH]cc(C(=O)c4c(F)ccc(NS(=O)(=O)c5cc(F)ccc5F)c4F)c3c2)cn1", "Insoluble"),
]

Given item `C#Cc1cnc2[nH]cc(C(=O)c3c(F)ccc(NS(=O)(=O)CCC)c3F)c2c1` , the value recorded as its solubility is Insoluble

So, `CCCS(=O)(=O)Nc1ccc(F)c(C(=O)c2c[nH]c3ncc(C#CCOC)cc23)c1F` ? Its solubility was Insoluble

Short answer for `COc1ncc(-c2cnc3[nH]cc(C(=O)c4c(F)ccc(NS(=O)(=O)c5c(F)cccc5F)c4F)c3c2)cn1` : solubility was Insoluble

Entry under test: `CCCS(=O)(=O)Nc1ccc(F)c(C(=O)c2c[nH]c3ncc(-c4ccc(F)nc4)cc23)c1F` . Its solubility was Insoluble

Record `COc1cnc2[nH]cc(C(=O)c3c(F)ccc(NS(=O)(=O)c4cc(F)ccc4F)c3F)c2c1` , field solubility: Insoluble

Documented solubility of `O=C(c1c(F)ccc(NS(=O)(=O)c2cc(F)ccc2F)c1F)c1c[nH]c2ncc(Cl)cc12` : Insoluble

Recorded result, `CCCS(=O)(=O)Nc1ccc(F)c(C(=O)c2c[nH]c3ncc(-c4ccc(S(=O)(=O)NC5CC5)cc4)cc23)c1F` , solubility: Insoluble

solubility for `CCCS(=O)(=O)Nc1ccc(F)c(C(=O)c2c[nH]c3ncc(-c4ccc(C(=O)NC)nc4)cc23)c1F` is Insoluble

response.value for `CCCS(=O)(=O)Nc1ccc(F)c(C(=O)c2c[nH]c3ncc(-c4cnc(SC)nc4)cc23)c1F` (field: solubility) = Insoluble

Query `O=C(c1c(F)ccc(NS(=O)(=O)c2cc(F)ccc2F)c1F)c1c[nH]c2nccc(Cl)c12` yields solubility of Insoluble

Input `COc1ncc(-c2cnc3[nH]cc(C(=O)c4c(F)ccc(NS(=O)(=O)c5cccc(F)c5)c4F)c3c2)cn1` . Output solubility: Insoluble

----------
# assayMethodText: Aqueous solubility of the compound in hepes buffer at pH 7.4
# Assay type: physicochemical
assayEndpoint: solubility

Sample records with solubility:
# smi, obsValue
records = [
    ("CCCS(=O)(=O)Nc1ccc(F)c(C(=O)c2c[nH]c3ncc(-c4ccc(S(N)(=O)=O)cc4)cc23)c1F", "Insoluble"),
    ("N#Cc1cnc2[nH]cc(C(=O)c3cccc(NS(=O)(=O)c4cc(F)ccc4F)c3F)c2c1", "Soluble"),
    ("CCCS(=O)(=O)Nc1ccc(F)c(C(=O)c2c[nH]c3ncc(-c4ccc(NC(C)=O)nc4)cc23)c1F", "Insoluble"),
    ("O=C(c1c(F)ccc(NS(=O)(=O)c2cc(F)ccc2F)c1F)c1c[nH]c2ncc(Cl)cc12", "Soluble"),
    ("O=C(c1c(F)ccc(NS(=O)(=O)c2c(F)cccc2F)c1F)c1c[nH]c2ncc(Cl)cc12", "Soluble"),
    ("COc1ncc(-c2cnc3[nH]cc(C(=O)c4c(F)ccc(NS(=O)(=O)c5cc(F)ccc5F)c4F)c3c2)cn1", "Insoluble"),
]

Reported solubility ( `COc1cnc2[nH]cc(C(=O)c3c(F)ccc(NS(=O)(=O)c4ccccc4F)c3F)c2c1` ) = Soluble

# solubility (compound: `CCCS(=O)(=O)Nc1ccc(F)c(C(=O)c2c[nH]c3ncc(-c4cnc(N5CCOCC5)nc4)cc23)c1F` ) is Insoluble

// recorded solubility for `Cc1cnc2[nH]cc(C(=O)c3c(F)ccc(NS(=O)(=O)c4ccccc4F)c3F)c2c1` : Soluble

Form field solubility, entry `CCCS(=O)(=O)Nc1ccc(F)c(C(=O)c2c[nH]c3ncc(-c4ccc(C#CCN(CC)CC)nc4)cc23)c1F` : Insoluble

// recorded solubility for `O=C(c1c(F)ccc(NS(=O)(=O)c2ccccc2F)c1F)c1c[nH]c2nccc(Cl)c12` : Soluble

For this compound ( `CCCS(=O)(=O)Nc1ccc(F)c(C(=O)c2c[nH]c3ncc(-c4ccc(NS(C)(=O)=O)cc4)cc23)c1F` ), measured solubility is Insoluble

// solubility value for `COc1ncc(-c2cnc3[nH]cc(C(=O)c4c(F)ccc(NS(=O)(=O)c5c(F)cccc5F)c4F)c3c2)cn1` : Soluble

`CCCS(=O)(=O)Nc1ccc(F)c(C(=O)c2c[nH]c3ncc(-c4ccc(C(=O)NC5CC5)nc4)cc23)c1F` has a reported solubility of Insoluble

Memo: `COc1ncc(-c2cnc3[nH]cc(C(=O)c4c(F)ccc(NS(=O)(=O)c5cccc(F)c5)c4F)c3c2)cn1` , reported solubility: Soluble

Reported solubility ( `CCCS(=O)(=O)Nc1cccc(C(=O)c2c[nH]c3ncc(-c4cnc(N(C)C)nc4)cc23)c1F` ) = Insoluble

solubility for `CCCS(=O)(=O)Nc1ccc(F)c(C(=O)c2c[nH]c3ncc(-c4ccc(OCCCN5CCCC5)nc4)cc23)c1F` is Insoluble
